System: ΔF508-CFTR (Homo sapiens, UniProt P13569, DEL508-508)
Sequence (P13569 with tags, fused parts or gaps DEL508-508): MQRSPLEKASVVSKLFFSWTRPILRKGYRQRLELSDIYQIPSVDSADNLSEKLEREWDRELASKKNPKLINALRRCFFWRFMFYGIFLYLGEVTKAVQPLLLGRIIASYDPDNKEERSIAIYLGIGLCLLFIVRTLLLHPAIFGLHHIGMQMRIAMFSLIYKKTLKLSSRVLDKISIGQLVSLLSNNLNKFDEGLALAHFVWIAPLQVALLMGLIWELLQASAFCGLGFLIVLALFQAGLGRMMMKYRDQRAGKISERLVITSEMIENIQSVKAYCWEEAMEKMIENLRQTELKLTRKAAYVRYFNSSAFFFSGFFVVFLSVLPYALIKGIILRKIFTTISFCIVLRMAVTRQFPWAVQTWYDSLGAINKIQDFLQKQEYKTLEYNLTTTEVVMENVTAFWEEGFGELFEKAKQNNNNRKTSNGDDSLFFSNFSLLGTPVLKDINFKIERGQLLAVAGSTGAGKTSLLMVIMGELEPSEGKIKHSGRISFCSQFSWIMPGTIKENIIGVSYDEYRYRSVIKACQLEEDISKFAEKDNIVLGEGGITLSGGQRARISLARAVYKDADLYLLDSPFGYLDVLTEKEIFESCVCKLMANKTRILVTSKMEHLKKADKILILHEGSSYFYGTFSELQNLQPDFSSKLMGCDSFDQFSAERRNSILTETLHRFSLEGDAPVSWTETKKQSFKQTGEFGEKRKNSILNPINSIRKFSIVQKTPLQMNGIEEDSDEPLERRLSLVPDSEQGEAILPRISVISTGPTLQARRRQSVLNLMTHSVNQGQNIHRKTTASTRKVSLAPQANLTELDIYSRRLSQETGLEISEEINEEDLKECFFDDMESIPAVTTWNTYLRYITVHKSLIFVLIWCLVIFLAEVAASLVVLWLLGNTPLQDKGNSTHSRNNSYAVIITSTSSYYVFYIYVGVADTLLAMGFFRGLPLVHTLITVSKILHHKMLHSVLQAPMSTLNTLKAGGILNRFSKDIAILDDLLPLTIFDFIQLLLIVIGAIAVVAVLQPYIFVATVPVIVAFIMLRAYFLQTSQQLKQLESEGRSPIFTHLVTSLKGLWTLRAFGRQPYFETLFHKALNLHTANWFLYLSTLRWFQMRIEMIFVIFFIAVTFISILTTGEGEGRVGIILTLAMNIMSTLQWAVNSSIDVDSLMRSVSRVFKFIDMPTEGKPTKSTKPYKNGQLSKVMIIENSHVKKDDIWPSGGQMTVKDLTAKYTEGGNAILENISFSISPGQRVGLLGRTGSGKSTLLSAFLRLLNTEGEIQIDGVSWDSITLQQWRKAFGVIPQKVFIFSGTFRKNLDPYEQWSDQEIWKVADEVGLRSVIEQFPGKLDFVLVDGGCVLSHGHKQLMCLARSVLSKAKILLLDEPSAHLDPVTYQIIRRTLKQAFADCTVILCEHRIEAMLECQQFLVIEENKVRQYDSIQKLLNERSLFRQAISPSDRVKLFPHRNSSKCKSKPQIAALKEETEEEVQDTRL
Measurement description: Membrane potential optical assay (FRET/VIPR), identification of correction compounds
Below, each of the compounds is paired with its reported EC50 value.

# Compound, Reported value
data = [
    ("CC(c1nc2ccccc2c(=O)n1C)N1CCN(C(=O)c2cccc(Cl)c2)CC1 (stereo not drawn)", "25 to 60 µM"),
    ("COc1ccc(S(=O)(=O)N2CCN(C(C)c3nc4ccc(C#N)cc4c(=O)n3C)CC2)cc1 (stereo not drawn)", "10 to 25 µM"),
    ("COc1ccc(S(=O)(=O)N2CCN(C(C)c3nc4ccc(-c5nnn[nH]5)cc4c(=O)n3C)CC2)cc1 (stereo not drawn)", "25 to 60 µM"),
    ("CC(c1nc2ccc(Br)cc2c(=O)n1C)N1CCN(S(=O)(=O)c2ccc(Br)cc2)CC1 (stereo not drawn)", "< 10 µM"),
]

Task: Provide EC50 value for the following compound: Cc1ccc(S(=O)(=O)N2CCN(C(C)c3nc4ccc(Cl)cc4c(=O)n3C)CC2)cc1 (stereo not drawn)
Output: 25 to 60 µM

Task: Assign EC50 to the following record: Cc1ccc(S(=O)(=O)N2CCN(C(C)c3nc4ccc(Br)cc4c(=O)n3C)CC2)cc1 (stereo not drawn)
Output: 10 to 25 µM

Recorded values, source patent US8642609B2.
